target: Cytochrome P450 2D6 (Homo sapiens) (UniProt P10635); assay: Cytochrome P450 family 2 subfamily D member 6 (CYP2D6) small molecule antagonists: luciferase biochemical (cell-free) qHTS assay (AID 1645840); conditions: P450-Glo CYP2D6 enzyme, luciferin luminescence, 1 h; series mostly up to 57.4 µM; also: nearly all actives have a fitted effect of over 55% in size
Sequence (P10635 whole entry, looked up): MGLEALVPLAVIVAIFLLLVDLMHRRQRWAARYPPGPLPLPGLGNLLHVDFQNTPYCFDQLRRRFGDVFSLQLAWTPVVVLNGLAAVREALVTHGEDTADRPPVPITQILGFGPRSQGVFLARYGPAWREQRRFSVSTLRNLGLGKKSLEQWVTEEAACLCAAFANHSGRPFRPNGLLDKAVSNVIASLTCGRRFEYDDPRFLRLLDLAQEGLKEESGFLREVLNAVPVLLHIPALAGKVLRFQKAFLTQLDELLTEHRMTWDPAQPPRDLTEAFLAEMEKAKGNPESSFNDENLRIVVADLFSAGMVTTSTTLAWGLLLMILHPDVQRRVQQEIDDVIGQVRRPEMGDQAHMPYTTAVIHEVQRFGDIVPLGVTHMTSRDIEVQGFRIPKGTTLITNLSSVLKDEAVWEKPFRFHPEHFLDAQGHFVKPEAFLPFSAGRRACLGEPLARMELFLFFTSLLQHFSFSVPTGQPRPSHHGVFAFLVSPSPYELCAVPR
Inconclusive results are not listed. Active and inactive are the calls of the source. Calls follow the shape of the dose curve; as a rule, active = well fitted inhibition curve with a large enough effect in the repeat runs; inconclusive = weak or mixed curves; inactive = flat fitted curve, though single readings scatter.
Assign a class; possible classes are True (active), False (inactive)

[ask] Field: outcome | Entry: ClC1C(Cl)C(Cl)C(Cl)C(Cl)C1Cl (stereo unspecified)
[reply] False

[ask] Let us now turn to CCOC(=O)c1ccccc1C(=O)OCC
[reply] False

[ask] Let us now turn to CCCSP(=O)(OCC)SCCC
[reply] True

[ask] Let us now turn to O=[N+]([O-])C(Br)(CO)CO
[reply] False

[ask] Let us now turn to O=[N+]([O-])c1cc(I)c(O)c(I)c1
[reply] False

[ask] Let us now turn to CCOc1ccccc1-n1c(C(C)N2CCN(C(=O)COc3ccc(Cl)cc3)CC2)nc2ccccc2c1=O (stereo unspecified)
[reply] False

[ask] Let us now turn to Cc1cccc(NC(=O)N[C@@H]2N=C(c3ccccc3)c3ccccc3N(C)C2=O)c1
[reply] False

[ask] Let us now turn to CC1CCC(C(C)C)C(OC(=O)c2ccccc2N)C1 (stereo unspecified)
[reply] False

[ask] Let us now turn to COc1ccc(OC)c(C(O)C(C)N)c1 (stereo unspecified)
[reply] False

[ask] Let us now turn to CC(N)Cc1c[nH]c2ccccc12 (stereo unspecified)
[reply] True

[ask] Let us now turn to CCNC(C)Cc1cccc(C(F)(F)F)c1 (stereo unspecified)
[reply] True
